The entries below come with measured Papp at 2 h, 3 µM values attached.
- TEST: Caco-2 Permeability Assay
- Format: in vitro ADME
- CONDITION_SUMMARY: human, Caco-2, test compound 3 μM
- Protocol: Caco-2 Permeability Assay Thirteen to 27 days prior to assay, Caco-2 cells were seeded onto collagen-coated polycarbonate filter membranes in 24-well transwell plates at a density of 1.45×10^5 cells/cm^2, approximately 4.8×10^4 cells per well. […] The cells were evaluated for tight junction formation just prior to assay. […] The samples were subsequently analyzed by LC-MS/MS to determine concentrations of compound.

Here's what some known entries look like.
[2H]C([2H])([2H])C(=O)N1CC(n2cc(-c3cnc(-n4ncc5cc(C#N)cnc54)cc3NC(C)C)nn2)C1 [Example 140] : < 1.5 ×10⁻⁶ cm/s
CC(=O)N1CC[C@H](n2cc(-c3cnc(-n4ncc5cc(C#N)cnc54)cc3NC(C)C)nn2)[C@H](O)C1 [Example 178] : < 1.5 ×10⁻⁶ cm/s
CC(C)Nc1cc(-n2ncc3cc(C#N)cnc32)ncc1-c1cn([C@H]2CCN(S(C)(=O)=O)C[C@H]2O)nn1 [Example 181] : < 1.5 ×10⁻⁶ cm/s
CC(C)Nc1cc(-n2ncc3cc(C#N)cnc32)ncc1-c1cc([C@H]2CCNC2)no1 [Example 404] : < 1.5 ×10⁻⁶ cm/s
CC(C)(O)CCc1cn(-c2cnc(-n3ncc4cc(C#N)cnc43)cc2NCCCF)nn1 [Example 370] : 2.5 ×10⁻⁶ cm/s

query: Given CC(=O)N1CC(c2cn(-c3cnc(-n4ncc5cc(C#N)cnc54)cc3NC(C)C)nn2)C1 [Example 339] , state its recorded Papp at 2 h, 3 µM.
result: < 1.5 ×10⁻⁶ cm/s

----------
- TEST: Caco-2 Permeability Assay
- Format: in vitro ADME
- CONDITION_SUMMARY: human, Caco-2, test compound 3 μM
Where a name gives a salt, the structure may show the parent alone.
ATTRIBUTE_MEASURED: Papp at 2 h, 3 µM (×10⁻⁶ cm/s)

Answered cases to consult:
CC(C)Nc1cc(-n2ncc3cc(C#N)cnc32)ncc1-c1cn(CC2CCO2)nn1 (centres unmarked) [Example 123] : 24.4
CC(C)Nc1cc(-n2ncc3cc(C#N)cnc32)ncc1-c1cn(CCC(C)(C)O)cn1 [Example 240] : 5.7

[a] CC(=O)N1CC(n2cc(-c3cnc(-n4ccc5cc(C#N)cnc54)cc3NC(C)C)nn2)C1 [Example 162, TFA]
[b] CCCc1cn(-c2cnc(-n3ncc4cc(C#N)c(N)nc43)cc2NC(C)C)nn1 [Example 280]
query: Which shows the larger Papp at 2 h, 3 µM value: a or b ? Please respond with the label that marks your chosen entry.
result: b
(b: 27.6 ×10⁻⁶ cm/s, a: 17.1 ×10⁻⁶ cm/s)

----------
- TARGET_OR_TEST_SYSTEM: IRAK4 (Homo sapiens (Human))
- Sequence (Q9NWZ3 whole entry, species assumed): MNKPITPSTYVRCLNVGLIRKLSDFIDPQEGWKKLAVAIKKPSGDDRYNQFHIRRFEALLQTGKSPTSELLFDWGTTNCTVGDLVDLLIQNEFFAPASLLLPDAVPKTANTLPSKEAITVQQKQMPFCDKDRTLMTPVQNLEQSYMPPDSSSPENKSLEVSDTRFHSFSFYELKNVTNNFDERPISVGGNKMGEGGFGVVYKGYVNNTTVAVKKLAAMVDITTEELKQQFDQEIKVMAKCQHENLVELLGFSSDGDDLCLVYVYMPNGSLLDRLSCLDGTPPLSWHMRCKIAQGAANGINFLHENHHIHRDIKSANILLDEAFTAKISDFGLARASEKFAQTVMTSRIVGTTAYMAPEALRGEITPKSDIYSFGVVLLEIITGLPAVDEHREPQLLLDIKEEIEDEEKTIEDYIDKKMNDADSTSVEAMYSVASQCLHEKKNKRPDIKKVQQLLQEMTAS
Where a name gives a salt, the structure may show the parent alone.
ATTRIBUTE_MEASURED: IC50 (nM)

Example cases with answers are listed next.
CC(=O)N1CC[C@@H](c2cc(-c3cnc(-n4ncc5cc(C#N)cnc54)cc3NC(C)C)on2)C1 : 3
CC(C)Nc1cc(-n2ncc3cc(C#N)cnc32)ncc1-c1cn(CCc2ccccc2)nn1 : 3
CC(C)Nc1cc(-n2ncc3cc(C#N)cnc32)ncc1-c1cn([C@H]2CC[C@H](NC(=O)OC(C)(C)C)CC2)nn1 : 3
CCOCCn1cc(-c2cnc(-n3ncc4cc(C#N)cnc43)cc2NC(C)C)nn1 : 6

[I] CC(C)Nc1cc(-n2ncc3cc(C#N)cnc32)ncc1-c1cc(C2CC(F)(F)CCN2)no1 (stereo not shown)
[II] CNCc1cn(-c2cnc(-n3ncc4cc(C#N)cnc43)cc2NC(C)C)nn1
query: Returns the identifier with the smallest measured IC50 among I and II . Answer = label.
result: I
(I: 3 nM, II: 93 nM)

[a] CCCn1cc(-c2cnc(-n3ncc4cc(C#N)cnc43)cc2N[C@@H](C)CO)nn1
[b] CC(=O)N1CCC(c2cn(-c3cnc(-n4ncc5cc(C#N)cnc54)cc3NC(C)C)nn2)CC1
[c] CC(C)Nc1cc(-n2ncc3cc(C#N)cnc32)ncc1-n1cc(-c2cncn2C)nn1
query: Thanks in advance: please rank these 3 entries by IC50, highest to lowest. Lab note: final answer is the ordered label list.
result: c, b, a

[A] CCC(C)(O)Cn1cc(-c2cnc(-n3cnc4cc(C#N)cnc43)cc2NC(C)C)nn1 (single isomer, unassigned) [Example 95]
[B] CC(C)CCn1cc(-c2cnc(-n3ncc4cc(C#N)cnc43)cc2NC(C)C)nn1 [Example 10, TFA]
query: // pick min by IC50: A , B Please identify the chosen entry by its label.
result: B

[a] CC(=O)N1CCN(C(=O)Cn2cc(-c3cnc(-n4ncc5cc(C#N)cnc54)cc3NC(C)C)nn2)CC1
[b] CC(C)Nc1cc(-n2ncc3cc(C#N)cnc32)ncc1-c1cn(C2CN(C(=O)C3CC3)C2)nn1
query: Select the item whose IC50 value is smaller, choosing between a and b . Output the label that corresponds to your choice.
result: b

[1] CC(C)Nc1cc(-n2ncc3cc(C#N)cnc32)ncc1-c1cc([C@@H]2COC(C)(C)O2)no1
[2] CC(C)Nc1cc(-n2ncc3cc(C#N)cnc32)ncc1-c1cn([C@@H]2O[C@H](CO)[C@H](O)[C@H](O)[C@H]2O)nn1
query: Given 1 and 2 , report the one with the higher recorded IC50. Kindly give the label for the entry you pick.
result: 2

----------
- TEST: Caco-2 Permeability Assay
- Assay type: in vitro ADME
- CONDITION_SUMMARY: human, Caco-2, test compound 3 μM
Counter-ions that a name gives are not always drawn.
ATTRIBUTE_MEASURED: Papp at 2 h, 3 µM (nm/s)

[A] CC(C)(F)CCc1cn(-c2cnc(-n3ncc4cc(C#N)cnc43)cc2NC2COC2)nn1 [Example 363]
[B] CCOC(=O)N1CC[C@H](n2cc(-c3cnc(-n4ncc5cc(C#N)cnc54)cc3NC(C)C)nn2)[C@H](O)C1 [Example 180]
[C] CC(C)Nc1cc(-n2ncc3cc(C#N)cnc32)ncc1-c1cc(CC(C)(C)O)on1 [Example 438]
[D] CC(C)CCn1cc(-c2cnc(-n3ncc4cc(C#N)cnc43)cc2NC(C)C)nn1 [Example 10, TFA]
query: I'd appreciate it if you sorted the entries above by their Papp at 2 h, 3 µM, lowest to highest. Please reply with the labels ordered as requested. Many thanks.
result: B, D, A, C

[P] CCCn1cc(-c2cnc(-n3cnc4cc(C#N)cnc43)cc2Nc2cnn(CC)c2)nn1 [Example 59]
[Q] CCCc1cn(-c2cnc(-n3ncc4cc(C#N)cnc43)cc2Nc2cnn(CC(F)F)c2)nn1 [Example 269]
query: Lab log: flag the item ( P or Q ) with the smaller Papp at 2 h, 3 µM figure. Select an item and report its label.
result: Q

[P] CC(C)Nc1cc(-n2ncc3cc(C#N)cnc32)ncc1-c1cn([C@@H]2CCNC[C@@H]2F)nn1 (relative stereo) [Example 209]
[Q] CC(C)Nc1cc(-n2ncc3cc(C#N)cnc32)ncc1-n1cc(CCC(C)(C)O)cn1 [Example 390]
query: Name the one with the greater Papp at 2 h, 3 µM value, either P or Q as given. Give the chosen item's label as your response.
result: Q
(Q: 371 nm/s, P: 24 nm/s)

[1] CC(C)Nc1cc(-n2ncc3cc(C#N)cnc32)ncc1-c1cn(CC2CCC2)nn1 [Example 117]
[2] CC(C)Nc1cc(-n2ncc3cc(C#N)cnc32)ncc1-c1cn(CCC(F)(F)F)nn1 [Example 41]
query: I'd appreciate it if you could identify which of 1 and 2 has the greater Papp at 2 h, 3 µM. Mark your selection by writing its label.
result: 2
(2: 278 nm/s, 1: 101 nm/s)

----------
- TARGET_OR_TEST_SYSTEM: UniProt Q9NWZ3
pIC50: −log10 of the molar value.
ATTRIBUTE_MEASURED: pIC50

The examples below pair each entry with its known result.
CC(C)Nc1cc(-n2ncc3cc(C#N)cnc32)ncc1-c1cn([C@@H](C)[C@H](C)O)nn1 (single isomer, unassigned) [Example 91] : 8.30
CC(C)Nc1cc(-n2ncc3cc(C#N)cnc32)ncc1-c1cn(C(C)C)nn1 [Example 213] : 8.30

[P] CC(=O)N1CCC(n2cc(-c3cnc(-n4ncc5cc(C#N)cnc54)cc3NC(C)C)nn2)C1 (centres unmarked) [Example 157]
[Q] CCCNc1cc(-n2ncc3cc(C#N)cnc32)ncc1-n1cc(CCC(C)(C)O)nn1 [Example 389]
[R] CCOC(=O)N1CC[C@@H](n2cc(-c3cnc(-n4ncc5cc(C#N)cnc54)cc3NC(C)C)nn2)[C@@H](O)C1 [Example 189]
query: Ascending sort, pIC50. # output: labels, in the requested order
result: R, Q, P
(R: 7.57, Q: 7.85, P: 8.22)
